Tested on: 786-0 renal
experimental details: NCI tumour cell line growth inhibition, 48 h
Can you tell me TGI for the items I'm about to list?

For each of the compounds below, note its TGI.
1. CN1C(=O)N(C)C2C1NC(=S)N2/N=C/C=C/c1ccccc1[N+](=O)[O-] (stereo not drawn)
2. COC(=O)/C=C1\C(CO[Si](C)(C)C(C)(C)C)OC(n2cc(C)c(=O)n(C)c2=O)C1O[Si](C)(C)C(C)(C)C (stereo not drawn)
3. C=C1c2c(n(S(=O)(=O)c3ccccc3)c3ccccc23)[C@@]2(C(=O)OC)CC3C=CC2N1C3
4. Cc1cc2nc3c(C#N)c(C)c(CCCl)c(Cl)n3c2cc1C
5. COc1cc(OC)c(/C=C/C(=O)c2c(OC)cc(OC)cc2OC)c(OC)c1

A)
1. > 100 µM
2. > 100 µM
3. > 100 µM
4. 3.69 µM
5. > 74.7 µM

Please go through the list and note TGI for each compound.
1. CN(C)C(=O)N1N[C@H](c2ccccc2)[C@@H]1c1ccccc1
2. O=C(O)c1cc(NCc2cc(O)ccc2O)ccc1O
3. CC(NNC(=S)N1CCN(c2ccccn2)CC1)c1nccc2ccccc12 (stereo not drawn)
4. Cc1ccc(C)n1-c1ccccc1C1C=Cn2c(=O)oc3c(OC(C)C)c(OC(C)C)c(O)c1c32 (stereo not drawn)

A)
> 100 µM
> 100 µM
13 µM
> 100 µM

Could you tell me TGI for each of these compounds? They are listed below.
1. C=CCc1c(O)c(C(=O)/C=C/c2ccc(Cl)cc2)c(OC)c2ccoc12
2. Cc1nnc(N/N=C/c2ccc([N+](=O)[O-])o2)[nH]c1=O
3. COc1ccc(C2N(c3ccc(C)c(N=C=O)c3)C(=O)N3C(c4ccc(OC)cc4)N(c4ccc(C)c(N=C=O)c4)C(=O)N23)cc1 (stereo not drawn)
4. Cc1[nH]nc(C(F)(F)F)c1Cc1sc2c(c1C(=O)N1C[C@](C)(O)CO1)c(=O)n(C)c(=O)n2C(C)C

A)
1. 18.6 µM
2. 15.3 µM
3. > 100 µM
4. > 100 µM

---

System: TK-10 renal
experimental details: NCI tumour cell line growth inhibition, 48 h
property measured: TGI

compound	TGI
COc1ccc(C2N(c3ccc(C)c(N=C=O)c3)C(=O)N3C(c4ccc(OC)cc4)N(c4ccc(C)c(N=C=O)c4)C(=O)N23)cc1 (stereo not given)	> 100 µM
CC12CCC(C1)C(C)(C)C2OC(=O)c1ccccc1N (stereo not given)	32.8 µM
CCO/C=C\C12CCCC1NC(c1ccccc1)(c1ccccc1)O2 (stereo not given)	> 100 µM
O=C(CC(=O)N1N=C(c2ccccc2)C(N=Nc2ccc(S(=O)(=O)CCOS(=O)(=O)O)cc2)C1=O)Nc1ccc(Cl)cc1 (stereo not given)	> 100 µM

As a next step, examine the compound that follows.
Q) Give me measured TGI, please, for this compound: Cc1cnc2c(c1)C(=O)N(c1ccc(Oc3ccccc3)cc1)S2(=O)=O
A) > 100 µM

---

Please go through the items and note down their TGI.
Tested on: SK-MEL-5 melanoma
experimental details: NCI tumour cell line growth inhibition, 48 h

molecule	target or system	data value
Cn1nc(C(F)(F)F)cc1-c1cc(Cl)c(OCc2ccc(Cl)cc2)c(-c2ccc(Cl)c(C(F)(F)F)c2)c1O	SK-MEL-5 melanoma	1.74 µM
N=C(N)SCc1nc(-c2ccc(Cl)cc2)no1	SK-MEL-5 melanoma	> 100 µM
COC(=O)/C1=C/C=C\C[C@@]2(C)CC(c3ccoc3)OC(=O)[C@@H]2CC[C@H]1C (stereo not given in full)	SK-MEL-5 melanoma	> 25 µM

Would you be so kind as to report TGI for each listed record?
1. CCC[N+](C)(C)CCCNC(=O)c1c(O)c2ccccc2[nH]c1=O
2. COC1C(O)C(C)OC(O[C@H]2CC[C@@]3(C)C(CC[C@@H]4[C@@H]3CC[C@]3(C)[C@@H](C(C)OC5OC(CO)C(O)C(O)C5O)CC[C@]43O)C2)C1O (stereo not given in full)
3. COc1cc2ncnc(Oc3ccc(NC(=O)Nc4ccc(CN5CCOCC5)c(C(F)(F)F)c4)c4ccccc34)c2cc1OC

A)
1. 54.8 µM
2. > 25 µM
3. 2.34 µM

Values were extracted from PubChem BioAssay (NCI).
